meta.source: patent EP2014310A2

# system: T1, human KDR-Fc fusion (R&D Systems #357-KD-050) (human, UniProt P35968 20-764)
# T1 construct: bought
# T1 sequence (P35968 20-764): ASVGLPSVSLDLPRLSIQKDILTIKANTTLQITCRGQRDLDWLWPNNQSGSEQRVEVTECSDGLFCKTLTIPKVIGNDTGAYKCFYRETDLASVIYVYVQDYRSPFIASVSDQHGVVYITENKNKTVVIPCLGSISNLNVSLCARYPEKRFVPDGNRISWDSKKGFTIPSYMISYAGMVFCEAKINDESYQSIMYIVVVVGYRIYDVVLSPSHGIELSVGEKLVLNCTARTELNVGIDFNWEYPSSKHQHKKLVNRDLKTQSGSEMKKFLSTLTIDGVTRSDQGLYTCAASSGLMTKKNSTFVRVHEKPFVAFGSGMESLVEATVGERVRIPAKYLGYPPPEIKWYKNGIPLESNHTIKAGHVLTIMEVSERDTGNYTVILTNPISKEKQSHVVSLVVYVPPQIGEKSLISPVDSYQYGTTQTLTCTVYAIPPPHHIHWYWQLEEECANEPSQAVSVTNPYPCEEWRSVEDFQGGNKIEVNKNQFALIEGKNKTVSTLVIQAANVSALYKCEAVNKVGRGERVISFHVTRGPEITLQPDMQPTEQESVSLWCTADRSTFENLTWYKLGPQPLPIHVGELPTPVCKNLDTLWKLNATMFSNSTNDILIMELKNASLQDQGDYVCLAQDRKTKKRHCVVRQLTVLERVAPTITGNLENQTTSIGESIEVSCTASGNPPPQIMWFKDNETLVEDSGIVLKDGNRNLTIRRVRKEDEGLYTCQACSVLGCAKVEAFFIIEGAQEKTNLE
# assayText: fluorescence anisotropy, fluorescein-labeled peptide
pKd: −log10 of the molar value. Bridge positions count the residues as written; N and C are the ends.
Collected pKd values appear next to each entry.

| binder | pKd |
| --- | --- |
| Ac-AGIDFCKGMAPWLCADMGTGGGK-NH2 (disulfide 6-14 (inferred); not fully specified) [SEQ ID NO:311] | 6.14 |
| Ac-GSNSHCYIWDGMWLCFPDAPGGGK-NH2 (disulfide 6-15 (inferred); not fully specified) [SEQ ID NO:315] | 6.13 |
